TARGET_OF_ASSAY: OCT1 (SLC22A1) (Homo sapiens)
METHOD_DESCRIPTION: in vitro
ASSAY_CONTEXT: hek293
Short version: inhibition at 100 µM at least 60% is fulfilled, less is not fulfilled.

Worked cases, answers included:
MOLECULE: CC(=O)[C@H]1CC[C@H]2[C@@H]3CCC4=CC(=O)CC[C@]4(C)[C@H]3CC[C@]12C
DISCRETE_LABEL: not fulfilled
--
MOLECULE: NNc1nncc2ccccc12 [HYDRALAZINE]
DISCRETE_LABEL: not fulfilled

Reported inhibition at 100 µM reaches at least 60% for "CN1CCC[C@H]1c1cccnc1" ? not fulfilled

Please tell me: is the molecule OC(CCN1CCCCC1)(c1ccccc1)C1CCCCC1 (configuration not stated) at or over 60% in terms of inhibition at 100 µM? fulfilled

Hello, I need to know if "COc1ccc(CCNC[C@H](O)c2ccc(O)cc2)cc1OC" has measured inhibition at 100 µM not below 60%. Thanks! not fulfilled

====

TARGET_OF_ASSAY: Solute carrier family 22 member 1 (Homo sapiens, UniProt O15245)
PROPERTY_NAME: pIC50
One number for each entry, as −log10 of the molar value.

Solved cases below.
MOLECULE: Clc1cccc(Cl)c1N=C1NCCN1
ASSAY_RESULT: 4.65
//
MOLECULE: CCOc1cc(CC(=O)N[C@@H](CC(C)C)c2ccccc2N2CCCCC2)ccc1C(=O)O [REPAGLINIDE]
ASSAY_RESULT: 5.04
//
MOLECULE: COc1cccc(C2(O)CCCCC2CN(C)C)c1 (stereo not given)
ASSAY_RESULT: 4.28
//
MOLECULE: CN(C)CCCC1(c2ccc(F)cc2)OCc2cc(C#N)ccc21 (stereo not given)
ASSAY_RESULT: 4.73
//
MOLECULE: CC(CN(C)C)CN1c2ccccc2CCc2ccccc21 (stereo not given)
ASSAY_RESULT: 4.56
//
MOLECULE: CNCCCN1c2ccccc2CCc2ccccc21
ASSAY_RESULT: 4.25

Batch request: pIC50 per item, same order as input.
1. CN1CC[C@]23c4c5ccc(O)c4O[C@H]2[C@@H](O)C=C[C@H]3[C@H]1C5
2. O=C(CCCN1CCC(O)(c2ccc(Cl)cc2)CC1)c1ccc(F)cc1
3. COc1ccc([C@@H]2Sc3ccccc3N(CCN(C)C)C(=O)[C@@H]2OC(C)=O)cc1
4. CN(C)CCC=C1c2ccccc2CCc2ccccc21

1. 4.55
2. 3.85
3. 4.91
4. 4.77

====

TARGET_OF_ASSAY: OCT1 (SLC22A1) (Homo sapiens, UniProt O15245)
Sequence (O15245 whole entry): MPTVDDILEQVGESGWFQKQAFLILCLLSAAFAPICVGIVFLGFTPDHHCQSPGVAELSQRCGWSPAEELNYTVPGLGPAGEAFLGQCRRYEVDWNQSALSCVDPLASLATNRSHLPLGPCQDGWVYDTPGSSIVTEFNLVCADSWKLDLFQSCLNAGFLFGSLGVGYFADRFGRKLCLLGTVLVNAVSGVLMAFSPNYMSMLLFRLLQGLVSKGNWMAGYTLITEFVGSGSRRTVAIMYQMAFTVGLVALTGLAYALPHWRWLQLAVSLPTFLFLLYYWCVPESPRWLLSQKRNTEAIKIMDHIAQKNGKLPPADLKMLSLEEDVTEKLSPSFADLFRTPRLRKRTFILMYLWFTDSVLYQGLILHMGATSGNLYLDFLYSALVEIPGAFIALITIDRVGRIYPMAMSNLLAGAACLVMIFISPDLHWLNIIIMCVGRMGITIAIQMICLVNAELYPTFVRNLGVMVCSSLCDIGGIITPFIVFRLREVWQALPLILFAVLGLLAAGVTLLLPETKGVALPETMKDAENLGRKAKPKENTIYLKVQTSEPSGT
METHOD_DESCRIPTION: in vitro
ASSAY_CONTEXT: HEK293 cells that express human OCT1, probe 4-(4-(dimethylamino)styryl)-N-methylpyridinium
Give measured inhibition at 100 µM for each item. Keep answers brief.
Give bare numbers, in %.

Examples with their reported inhibition at 100 µM follow.
COMPOUND: CN(C)CCCN1c2ccccc2Sc2ccc(Cl)cc21
DISPLAY_UNIT: %
inhibition at 100 µM: 85.1

COMPOUND: CN1CCN2c3ccccc3Cc3ccccc3C2C1 (centres undefined)
DISPLAY_UNIT: %
inhibition at 100 µM: 48.4

COMPOUND: O=C1CC[C@@]2(O)[C@H]3Cc4ccc(O)c5c4[C@@]2(CCN3CC2CC2)[C@H]1O5 [NALTREXONE]
DISPLAY_UNIT: %
inhibition at 100 µM: 40.3

Indicate the recorded inhibition at 100 µM value for this compound: "CC(=O)O[C@H]1C(=O)[C@@]2(C)[C@H]([C@H](OC(=O)c3ccccc3)[C@]3(O)C[C@H](OC(=O)[C@H](O)[C@@H](NC(=O)c4ccccc4)c4ccccc4)C(C)=C1C3(C)C)[C@]1(OC(C)=O)CO[C@@H]1C[C@@H]2O" 7.1

Taken from ChEMBL document CHEMBL1140113.
